- subject_of_test: BACE1 in primary mouse cortical neurons (mouse, UniProt P56818 46-501)
- Sequence (P56818 46-501): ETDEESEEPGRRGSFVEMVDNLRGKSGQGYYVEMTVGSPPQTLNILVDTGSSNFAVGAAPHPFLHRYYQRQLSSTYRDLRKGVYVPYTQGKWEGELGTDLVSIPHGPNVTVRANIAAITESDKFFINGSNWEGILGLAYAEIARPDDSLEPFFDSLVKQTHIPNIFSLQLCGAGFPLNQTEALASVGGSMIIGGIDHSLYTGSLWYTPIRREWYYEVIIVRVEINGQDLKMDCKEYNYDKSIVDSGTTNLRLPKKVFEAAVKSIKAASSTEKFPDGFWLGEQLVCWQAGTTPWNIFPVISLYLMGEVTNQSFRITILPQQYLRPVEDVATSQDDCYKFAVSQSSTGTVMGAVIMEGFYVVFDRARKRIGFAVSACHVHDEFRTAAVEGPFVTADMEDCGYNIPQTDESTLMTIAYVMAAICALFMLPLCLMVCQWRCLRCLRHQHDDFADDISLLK
- assay_details: cell-based or functional assay
Listing of entries alongside the reported IC50, Abeta x-40 in mouse cortical neurons.
endpoint: IC50, Abeta x-40 in mouse cortical neurons (nM)

{"binder": "5892 (antibody, V domains shown, anti-BACE1 IgG) VH: QVQLVQSGAEVKKPGSSVKVSCKASGGTFSSYAISWVRQAPGQGLEWMGNIIPIFGTATYAQKFQGRVTITADESTSTAYMELSSLRSEDTAVYYCARSGGTKYGMLDVWGQGTMVTVSS VL: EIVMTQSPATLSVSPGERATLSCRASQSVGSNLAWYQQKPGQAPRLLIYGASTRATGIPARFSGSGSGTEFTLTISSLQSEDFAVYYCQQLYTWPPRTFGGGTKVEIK", "readout_value": 9.52}
{"binder": "5896 (antibody, V domains shown, anti-BACE1 IgG) VH: QLQLQESGPGLVKPSETLSLTCTVSGGSISSSSYYWGWIRQPPGKGLEWIGSIYRSGSTYYNPSLKSRVTISVDTSKNQFSLKLSSVTAADTAVYYCARVGHGISYFDLWGRGTLVTVSS VL: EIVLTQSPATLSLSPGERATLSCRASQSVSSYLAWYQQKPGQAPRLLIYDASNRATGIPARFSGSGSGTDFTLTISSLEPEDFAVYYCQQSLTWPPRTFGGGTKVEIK", "readout_value": 2.7}
{"binder": "5643 (antibody, V domains shown) VH: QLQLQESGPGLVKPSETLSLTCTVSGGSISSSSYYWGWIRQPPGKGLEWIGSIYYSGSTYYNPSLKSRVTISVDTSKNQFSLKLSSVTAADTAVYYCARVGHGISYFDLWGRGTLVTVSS VL: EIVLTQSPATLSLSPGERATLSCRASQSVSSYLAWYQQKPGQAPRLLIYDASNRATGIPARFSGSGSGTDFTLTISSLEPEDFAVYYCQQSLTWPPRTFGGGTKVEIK", "readout_value": 9.71}

Reference source: patent US20180057604A1
